# Tested on: OVCAR-8 ovarian
# method-summary: NCI tumour cell line growth inhibition, 48 h
Exercise: for every item that follows, state its recorded TGI.

Illustrative cases are given below, each with its answer.
• O=c1c2cc(Br)ccc2nc(CNc2ccccc2)n1-c1ccccc1 = > 57 µM
• CN(C)CCCC1(c2ccc(F)cc2)OCc2cc(-c3csc4ccccc34)ccc21 (stereo not given) = 3.84 µM
• COc1cc(/C=C/C(=O)c2nc3cc(F)ccc3nc2C)cc(OC)c1OC = > 100 µM
• CC(C)(CCCCC(C)(C)NC1=NCCO1)NC1=NCCO1 = > 10 µM
• N#CC1=C(S)N(C2OC(CO)C(O)C(O)C2O)C(c2ccccc2)=CC1c1ccco1 (stereo not given) = > 100 µM

The following compounds each have a reported value; give each one's TGI.
1. Cc1nc2ccccc2n1Cc1nnc(-c2ccccc2)o1
2. C/C(=C\c1csc(C)n1)[C@@H]1C[C@@H]2O[C@]2(C)CCC[C@H](C)[C@H](O)[C@@H](C)C(=O)C(C)(C)[C@@H](O)CC(=O)N1
3. CC1C(OS(=O)(=O)c2ccc3[nH]c(=S)sc3c2)CC2C3(C)CCC2(C(C)C(=O)O)C(O)C13 (stereo not given)

> 100 µM
0.000184 µM
54.6 µM

The following compounds each have a reported value; give each one's TGI.
1. COc1ccc2cc3n(c(=O)c2c1)CCc1c-3cc(OC)c(OC)c1OC
2. Cc1ccc2c(=O)cc(-c3cc(C)sc3C)[nH]c2n1
3. O=C(O)c1cn(C2CC2)c2cc(N3CCN(C(=O)N(c4ccccc4)c4nc(-c5ccccc5)cs4)CC3)c(F)cc2c1=O
4. ON1CCc2c([nH]c3ccccc23)C1c1ccc(Cl)cc1 (stereo not given)

1: > 100 µM; 2: > 37.3 µM; 3: > 100 µM; 4: > 100 µM

The following compounds each have a reported value; give each one's TGI.
1. CCOC(=O)c1nc2ccc(C(F)(F)F)cc2nc1Oc1ccc(OC)cc1
2. O=S(=O)(O)C(c1ccccc1)C(O)c1ccccc1 (stereo not given)

["> 100 µM", "> 100 µM"]

The following compounds each have a reported value; give each one's TGI.
1. COc1cc2c(cc1C)NC(=O)/C2=C\c1ccc(Oc2ccccc2)cc1
2. O=C(O)CCC(NC(=O)c1ccc(Nc2nc3ccc(C(F)(F)F)cc3nc2C(=O)O)cc1)C(=O)O (stereo not given)
3. COC1=CC(=O)C(O)=C(CC2(C)C(C)CCC3(C)C2CCCC3(C)C)C1=O (stereo not given)
4. NS(=O)(=O)c1cc2c(cc1Cl)NCNS2(=O)=O

64.6 µM
> 100 µM
26.2 µM
> 100 µM

The following compounds each have a reported value; give each one's TGI.
1. CN(C)[C@@H]1C(=O)C(C(=O)NCc2nc3[nH]cnc(=S)c3[nH]2)=C(O)[C@@]2(O)C(=O)C3=C(O)c4c(O)cccc4[C@@](C)(O)[C@H]3C[C@@H]12
2. CO/C(N)=C(\C#N)N=Cc1ccsc1

> 100 µM
> 100 µM
